- TEST TARGET: D-CXCL8 (mirror-image human CXCL8) (synthetic (human sequence))
- ASSAY SUMMARY: pulldown
- COND: direct pull-down; 37 C; 20 mM Tris pH 7.4, 150 mM NaCl, 5 mM KCl, 1 mM MgCl2, 1 mM CaCl2, yeast RNA
QUANTITY KIND: Kd (nM)

chain="GCUGACGGAAGUACGUGGAAAGCCGAAAGUGUGUCCCGGUCAGC [315-F8-001 (D)]" test_target="D-CXCL8 (mirror-image human CXCL8) (synthetic (human sequence))" quantity_unit=nM obs_value=0.8

###

- TEST TARGET: CXCL8 (IL-8) (Homo sapiens) (UniProt P10145)
- Sequence (P10145 23-99): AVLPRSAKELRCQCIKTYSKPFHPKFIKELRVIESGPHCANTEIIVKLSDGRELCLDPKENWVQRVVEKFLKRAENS
- ASSAY SUMMARY: SPR
- COND: L-RNA; 25 C; CXCL8 immobilised
QUANTITY KIND: Kd (pM)

chain="CUGACGGAAGUACGUGGAAAGCCGAAAGUGUGUCCCGGUCAG [315-F8-002 (L)]" quantity_kind=Kd obs_value=220
